test system: P. acnes NCTC 737; test: Synergy disc diffusion assay (SDDA), also supplemented; settings: copper salt + TBHQ; salt and lipid (1% (v/v) Tween 80)
ENDPOINT LABEL: SL SDDA area increase (%)
Hi! Could you send only the number? It should be in %, unit omitted.

Use the examples below as a reference point.
COMPOUND | VALUE OBSERVED
[Cu+].[I-] [Copper (I) iodide] | 96.51
[Cl-].[Cu+2].[Cu+2].[OH-].[OH-].[OH-] [Copper (II) oxychloride] | 7.76
CC(=O)Oc1ccccc1C(=O)[O-].CC(=O)Oc1ccccc1C(=O)[O-].CC(=O)Oc1ccccc1C(=O)[O-].CC(=O)Oc1ccccc1C(=O)[O-].[Cu+2].[Cu+2] [Copper (II) aspirinate] | 54.20
[Br][Cu][Br] [Copper (II) bromide] | 76.46

Kindly consider the entry below.
Request: Requested read-out: SL SDDA area increase. Entry: [Cu][Br] [Copper (I) bromide]
Result: 64.26

###

Reported DDA + salt by item:
tested on: P. acnes NCTC 737; test: Disc diffusion assay (DDA), also supplemented
Hi! Could you send only the number? It should be in mm, unit omitted.

MOLECULE | ENDPOINT LABEL | UNIT ANNOTATION | VALUE OBSERVED
O.O.O.O.O.O=S(=O)([O-])[O-].[Cu+2] [Copper (II) sulphate pentahydrate] | DDA + salt | mm | 50.28
CC(=O)[O-].[Cu+] [Copper (I) acetate] | DDA + salt | mm | 49.48
CC(=O)[O-].CC(=O)[O-].[Cu+2] [Copper (II) acetate] | DDA + salt | mm | 48.25
O.O=C([O-])C(O)C(O)C(=O)[O-].[Cu+2] (centres unmarked) [Copper (II) tartrate hydrate] | DDA + salt | mm | 48.25

Kindly consider the entry below.
Request: Requested read-out: DDA + salt. Entry: On1ccccc1=S.On1ccccc1=S.[Cu]
Result: 43.21

###

Reported SDDA increase by item:
test system: S. aureus ATCC 29213; test: Synergy disc diffusion assay (SDDA), also supplemented;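 note: disc diffusion on Mueller-Hinton agar at pH 7.2, aerobic incubation at 37 °C lasting 19-20 h, two compounds assessed jointly for combined antimicrobial effect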
Hi! Could you send only the number? It should be in mm, unit omitted.

Use the examples below as a reference point.
MOLECULE | ENDPOINT LABEL | VALUE OBSERVED
O.O.O.O.O.O=S(=O)([O-])[O-].[Cu+2] [Copper (II) sulphate pentahydrate] | SDDA increase | 15.05
CC(=O)[O-].[Cu+] [Copper (I) acetate] | SDDA increase | 3.16
On1ccccc1=S.On1ccccc1=S.[Cu] | SDDA increase | 19.29
O.O=C([O-])C(O)C(O)C(=O)[O-].[Cu+2] (centres unmarked) [Copper (II) tartrate hydrate] | SDDA increase | −26.84

Kindly consider the entry below.
Request: Short answer please: SDDA increase, S. aureus ATCC 29213, entry CC(=O)[O-].CC(=O)[O-].[Cu+2] [Copper (II) acetate]
Result: 0.32

###

Reported SL SDDA area increase by item:
test system: P. acnes NCTC 737; experiment: Synergy disc diffusion assay (SDDA), also supplemented; conditions: quinone + CSPH; salt and lipid (1% (v/v) triolein)
Hi! Could you send only the number? It should be in %, unit omitted.

Use the examples below as a reference point.
COMPOUND | ENDPOINT LABEL | VALUE OBSERVED
CCc1cc(O)ccc1O [2-ethyl-p-hydroquinone] | SL SDDA area increase | 11.07
Cc1cc(O)ccc1O [2-methyl-p-hydroquinone] | SL SDDA area increase | 17.67
CC1=CC(=O)C=CC1=O | SL SDDA area increase | 18.59
CC(C)(C)C1=CC(=O)C=CC1=O | SL SDDA area increase | 10.60

Kindly consider the entry below.
Request: Requested read-out: SL SDDA area increase. Entry: O=C1C=CC(=O)C(Cl)=C1
Result: 3.75

###

Reported SDDA increase by item:
test system: P. acnes NCTC 737; assay: Synergy disc diffusion assay (SDDA), also supplemented
Hi! Could you send only the number? It should be in mm, unit omitted.

Use the examples below as a reference point.
COMPOUND | TEST SYSTEM | SDDA increase / mm
O.O.O.O.O.O=S(=O)([O-])[O-].[Cu+2] [Copper (II) sulphate pentahydrate] | P. acnes NCTC 737 | 22.11
CC(=O)[O-].[Cu+] [Copper (I) acetate] | P. acnes NCTC 737 | 18.67
O.O=C([O-])C(O)C(O)C(=O)[O-].[Cu+2] (centres unmarked) [Copper (II) tartrate hydrate] | P. acnes NCTC 737 | 4.8
CC(=O)[O-].CC(=O)[O-].[Cu+2] [Copper (II) acetate] | P. acnes NCTC 737 | 13.35

Kindly consider the entry below.
Request: Requested read-out: SDDA increase. Entry: On1ccccc1=S.On1ccccc1=S.[Cu]
Result: 5.01

###

Tested on: P. acnes NCTC 737
Assay: Minimum inhibitory concentration (MIC) assay
Assay type: cell-based, Propionibacterium acnes
Conditions: copper salt alone; P. acnes NCTC 737
Source text: (a) Minimum Inhibitory Concentration (MIC) Assay The culture media were as described above. The assays included both negative (culture medium with no micro-organisms) and positive (culture medium plus diluting solvent plus micro-organism) controls.
Reported MIC/MBC ratio by item:
The answer should be a number; do not append a unit.

Use the examples below as a reference point.
COMPOUND | MIC/MBC ratio
[Cu][Br] [Copper (I) bromide] | 0.125
[Cl-].[Cu+2].[Cu+2].[OH-].[OH-].[OH-] [Copper (II) oxychloride] | 0.06

Request: Requested read-out: MIC/MBC ratio. Entry: [Br][Cu][Br] [Copper (II) bromide]
Result: 0.125

Request: Requested read-out: MIC/MBC ratio. Entry: [Cu+].[I-] [Copper (I) iodide]
Result: 0.25

###

system: P. acnes NCTC 737; test: Disc diffusion assay (DDA), also supplemented
Reported DDA + salt & lipid by item:
Hi! Could you send only the number? It should be in mm, unit omitted.

COMPOUND | TEST SYSTEM | DDA + salt & lipid / mm
CC(=O)[O-].CC(=O)[O-].[Cu+2] [Copper (II) acetate] | P. acnes NCTC 737 | 49.54
CC(=O)[O-].[Cu+] [Copper (I) acetate] | P. acnes NCTC 737 | 52.15
O.O=C([O-])C(O)C(O)C(=O)[O-].[Cu+2] (stereo not shown) [Copper (II) tartrate hydrate] | P. acnes NCTC 737 | 47.56

Kindly consider the entry below.
Request: Requested read-out: DDA + salt & lipid. Entry: On1ccccc1=S.On1ccccc1=S.[Cu]
Result: 33.37

###

Reported DDA + lipid by item:
system: S. aureus ATCC 29213; experiment: Disc diffusion assay (DDA), also supplemented
Hi! Could you send only the number? It should be in mm, unit omitted.

COMPOUND | DDA + lipid [mm]
O.O=C([O-])C(O)C(O)C(=O)[O-].[Cu+2] (centres unmarked) [Copper (II) tartrate hydrate] | 0
CC(=O)[O-].CC(=O)[O-].[Cu+2] [Copper (II) acetate] | 0
O.O.O.O.O.O=S(=O)([O-])[O-].[Cu+2] [Copper (II) sulphate pentahydrate] | 0

Request: Requested read-out: DDA + lipid. Entry: On1ccccc1=S.On1ccccc1=S.[Cu]
Result: 15.25

Request: Requested read-out: DDA + lipid. Entry: CC(=O)[O-].[Cu+] [Copper (I) acetate]
Result: 0

###

Reported SL SDDA with CSL by item:
tested on: P. acnes NCTC 737; assay: Synergy disc diffusion assay (SDDA), also supplemented; settings: quinone + CSL; salt and lipid (1% (v/v) triolein)

Use the examples below as a reference point.
MOLECULE | TEST SYSTEM | SL SDDA with CSL
CC(C)(C)C1=CC(=O)C=CC1=O | P. acnes NCTC 737 | 56.41 (±2.58) mm
CCc1cc(O)ccc1O [2-ethyl-p-hydroquinone] | P. acnes NCTC 737 | 48.82 (±0.47) mm
Cc1cc(O)ccc1O [2-methyl-p-hydroquinone] | P. acnes NCTC 737 | 49.54 (±0.81) mm

Request: Requested read-out: SL SDDA with CSL. Entry: CC1=CC(=O)C=CC1=O [2-methyl-p-benzoquinone]
Result: 49.85 (±3.20) mm

Request: Requested read-out: SL SDDA with CSL. Entry: O=C1C=CC(=O)C(Cl)=C1 [2-chloro-1,4-benzoquinone]
Result: 48.82 (±0.47) mm

###

system: P. acnes NCTC 737; test: Disc diffusion assay (DDA), also supplemented; conditions: copper salt alone, 200 μg per disc (silicate 62 μg); salt and 1% (v/v) Tween 80;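 note: paper disc carrying compound placed on inoculated Wilkins-Chalgren Anaerobe agar pH 6.0, with lipid or NaCl supplement where listed, anaerobic 37 °C for 72 h, inhibition zone diameter read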
Reported DDA + salt & lipid by item:

COMPOUND | TEST SYSTEM | DDA + salt & lipid
[Cu+].[I-] [Copper (I) iodide] | P. acnes NCTC 737 | 46.20 mm

Kindly consider the entry below.
Request: Short answer please: DDA + salt & lipid, P. acnes NCTC 737, entry [Br][Cu][Br] [Copper (II) bromide]
Result: 49.23 mm

Entry source: patent US20090246292A1
